target: Glycogen phosphorylase, muscle form (Oryctolagus cuniculus) (UniProt P00489); conditions: Muscle tissue
Sequence (P00489 whole entry, looked up): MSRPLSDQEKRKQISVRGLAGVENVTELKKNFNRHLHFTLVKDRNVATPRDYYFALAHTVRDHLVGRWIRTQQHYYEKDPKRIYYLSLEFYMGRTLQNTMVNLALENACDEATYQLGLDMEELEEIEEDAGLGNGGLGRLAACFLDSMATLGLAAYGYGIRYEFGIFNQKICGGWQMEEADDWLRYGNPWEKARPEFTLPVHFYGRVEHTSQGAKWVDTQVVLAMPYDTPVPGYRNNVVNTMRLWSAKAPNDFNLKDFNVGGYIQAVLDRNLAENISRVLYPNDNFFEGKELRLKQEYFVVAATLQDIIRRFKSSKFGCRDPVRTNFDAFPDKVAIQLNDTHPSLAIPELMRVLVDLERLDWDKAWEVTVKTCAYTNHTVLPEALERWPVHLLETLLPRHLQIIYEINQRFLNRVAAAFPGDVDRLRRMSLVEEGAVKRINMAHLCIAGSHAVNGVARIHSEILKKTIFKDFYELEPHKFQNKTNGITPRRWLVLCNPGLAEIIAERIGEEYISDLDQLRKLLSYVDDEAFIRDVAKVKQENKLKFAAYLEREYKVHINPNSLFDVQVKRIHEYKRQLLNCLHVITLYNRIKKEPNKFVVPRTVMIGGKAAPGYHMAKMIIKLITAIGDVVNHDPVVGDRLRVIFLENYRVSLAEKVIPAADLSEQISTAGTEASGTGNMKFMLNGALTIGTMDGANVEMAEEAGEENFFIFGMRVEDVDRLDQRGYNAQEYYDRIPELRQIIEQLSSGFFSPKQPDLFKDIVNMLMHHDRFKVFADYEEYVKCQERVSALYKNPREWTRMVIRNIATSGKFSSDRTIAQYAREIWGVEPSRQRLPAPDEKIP
Property Label: pKi

[[record]]
compound = "N#CC[C@]1(O)O[C@H](CO)[C@@H](O)[C@H](O)[C@H]1O"
target_system = "Glycogen phosphorylase, muscle form (Oryctolagus cuniculus) (UniProt P00489)"
obs_value = 2.12


[A] CC(=O)NCC(=O)N[C@H]1O[C@H](CO)[C@@H](O)[C@H](O)[C@H]1O
[B] COC(=O)N[C@]1(C(N)=O)O[C@H](CO)[C@@H](O)[C@H](O)[C@H]1O (stereo in doubt; 35)
Query: Of A and B , which carries the smaller reported pKi figure? Mark your selection by writing its label.
Result: A
(A: 3, B: 4.8)

[A] COC(=O)N[C@@H]1O[C@H](CO)[C@@H](O)[C@H](O)[C@H]1O
[B] NNC(=O)[C@@H]1O[C@H](CO)[C@@H](O)[C@H](O)[C@H]1O (stereo in doubt; 3)
Query: Which record would sort first by descending pKi, A or B ? Mark your selection by writing its label.
Result: A
(A: 4.07, B: 2.52)

[P] NC(=O)C1OC(CO)C(O)C(O)C1O (stereo in doubt; 2)
[Q] O=C(NCC(F)(F)F)[C@H]1O[C@@H](CO)[C@@H](O)[C@H](O)[C@@H]1O
Query: Which record would sort first by descending pKi, P or Q ? Mark your selection by writing its label.
Result: P

[a] NNC(=O)[C@@H]1O[C@H](CO)[C@@H](O)[C@H](O)[C@H]1O (stereo in doubt; 14)
[b] CS(=O)(=O)OCC1OC(CO)C(O)C(O)C1O (configuration not stated)
[c] COC(=O)C1OC(CO)C(O)C(O)C1O (stereo in doubt; 4)
Query: In this exercise, place the 3 compounds in ascending sequence of their recorded pKi. Output the labels ranked as instructed.
Result: c, b, a

----------
target: Glycogen phosphorylase, muscle form (Oryctolagus cuniculus) (UniProt P00489); settings: Muscle tissue
Property Label: pKi

[[record]]
molecule = "CCCC(=O)N[C@H]1O[C@H](CO)[C@@H](O)[C@H](O)[C@H]1O"
target_system = "Glycogen phosphorylase, muscle form (Oryctolagus cuniculus) (UniProt P00489)"
obs_value = 4.03

[[record]]
molecule = "NC(=O)N[C@H]1O[C@H](CO)[C@@H](O)[C@H](O)[C@H]1O"
target_system = "Glycogen phosphorylase, muscle form (Oryctolagus cuniculus) (UniProt P00489)"
obs_value = 3.85

[[record]]
molecule = "[N-]=[N+]=NC[C@@H]1O[C@H](CO)[C@@H](O)[C@H](O)[C@H]1O"
target_system = "Glycogen phosphorylase, muscle form (Oryctolagus cuniculus) (UniProt P00489)"
obs_value = 1.82

[[record]]
molecule = "O=C(CCl)N[C@H]1O[C@H](CO)[C@@H](O)[C@H](O)[C@H]1O"
target_system = "Glycogen phosphorylase, muscle form (Oryctolagus cuniculus) (UniProt P00489)"
obs_value = 4.35


[a] NCCC1OC(CO)C(O)C(O)C1O (stereo unspecified)
[b] NC(=O)C1OC(CO)C(O)C(O)C1O (stereo in doubt; 9)
Query: Of a and b , which carries the smaller reported pKi figure? Mark your selection by writing its label.
Result: a
(a: 2.35, b: 3.36)

[1] OCC1OC(S)C(O)C(O)C1O (stereo unspecified)
[2] OC[C@H]1O[C@H](OCC2O[C@@H](O)[C@H](O)[C@@H](O)[C@@H]2O)[C@H](O)[C@@H](O)[C@H]1O (stereo partly specified)
[3] CC(=O)N[C@H]1O[C@H](CO)[C@@H](O)[C@H](O)[C@H]1O
Query: In this exercise, place the 3 molecules in ascending sequence of their recorded pKi. Output the labels ranked as instructed.
Result: 2, 1, 3
(2: 1.79, 1: 3, 3: 4.5)

[A] OCC1OC(CO)C(O)C(O)C1O (stereo unspecified)
[B] NCC1OC(CO)C(O)C(O)C1O (stereo in doubt; 5)
Query: Of A and B , which carries the smaller reported pKi figure? Mark your selection by writing its label.
Result: B

----------
target: Glycogen phosphorylase, muscle form (Oryctolagus cuniculus) (UniProt P00489); conditions: Muscle tissue
Property Label: pKi

A selection of reference data follows.
[[record]]
compound = "O=C(Nc1ccccc1)C1OC(CO)C(O)C(O)C1O (configuration not stated)"
target_system = "Glycogen phosphorylase, muscle form (Oryctolagus cuniculus) (UniProt P00489)"
obs_value = 2.27

[[record]]
compound = "OC[C@@H]1O[C@@](O)(CO)[C@@H](O)[C@@H](O)[C@@H]1O"
target_system = "Glycogen phosphorylase, muscle form (Oryctolagus cuniculus) (UniProt P00489)"
obs_value = 1.8

[[record]]
compound = "O=C1N[C@@]2(O[C@@H](CO)[C@@H](O)[C@H](O)[C@@H]2O)C(=O)N1O"
target_system = "Glycogen phosphorylase, muscle form (Oryctolagus cuniculus) (UniProt P00489)"
obs_value = 4.41


[1] CNC(=O)C1OC(CO)C(O)C(O)C1O (configuration not stated)
[2] O=C(Nc1ccc(O)cc1)[C@H]1O[C@@H](O)[C@@H](O)[C@H](O)[C@@H]1O
Query: Which record would sort first by descending pKi, 1 or 2 ? Mark your selection by writing its label.
Result: 1
(1: 3.8, 2: 2.36)

[A] NN1C(=O)N[C@@]2(O[C@@H](CO)[C@@H](O)[C@H](O)[C@@H]2O)C1=O
[B] O=C(CS[C@H]1O[C@H](CO)[C@@H](O)[C@H](O)[C@H]1O)Nc1ccc(F)cc1F
[C] OC[C@@H]1O[C@H](n2cc(O[C@@H]3O[C@H](CO)[C@@H](O)[C@H](O)[C@H]3O)c3ccccc32)[C@@H](O)[C@@H](O)[C@@H]1O
Query: Rank descending by pKi. Output the labels ranked as instructed.
Result: A, C, B

[I] CCC(=O)N[C@H]1O[C@H](CO)[C@@H](O)[C@H](O)[C@H]1O
[II] O=C(CS[C@H]1O[C@H](CO)[C@@H](O)[C@H](O)[C@H]1O)Nc1ccccc1
Query: Of I and II , which carries the smaller reported pKi figure? Mark your selection by writing its label.
Result: II

[A] COC(=O)N[C@]1(C(N)=O)O[C@H](CO)[C@@H](O)[C@H](O)[C@H]1O (stereo in doubt; 49)
[B] NCC1OC(CO)C(O)C(O)C1O (stereo in doubt; 19)
Query: Which record would sort first by descending pKi, A or B ? Mark your selection by writing its label.
Result: A
(A: 3.5, B: 1.78)

----------
biological target: Glycogen phosphorylase, muscle form (Oryctolagus cuniculus); settings: Muscle tissue
Property Label: pKi

[[record]]
compound = "CNNC(=O)[C@H]1O[C@H](CO)[C@@H](O)[C@H](O)[C@H]1O"
obs_value = 2.75

[[record]]
compound = "[N-]=[N+]=NC[C@H]1O[C@H](CO)[C@@H](O)[C@H](O)[C@H]1O"
obs_value = 1.65

[[record]]
compound = "N#CC[C@@H]1O[C@H](CO)[C@@H](O)[C@H](O)[C@H]1O"
obs_value = 2.05

[[record]]
compound = "O=C(NCCO)[C@H]1O[C@@H](CO)[C@@H](O)[C@H](O)[C@@H]1O"
obs_value = 2.59

[[record]]
compound = "COC(=O)C1OC(CO)C(O)C(O)C1O (stereo in doubt; 18)"
obs_value = 2.55

[[record]]
compound = "CS(=O)(=O)OC[C@]1(O)O[C@@H](CO)[C@@H](O)[C@H](O)[C@@H]1O"
obs_value = 2.43

[[record]]
compound = "NC(=O)CS[C@H]1O[C@H](CO)[C@@H](O)[C@H](O)[C@H]1O"
obs_value = 1.68

[[record]]
compound = "OC[C@@H]1O[C@H](OC[C@H]2S[C@H](O)[C@H](O)[C@@H](O)[C@@H]2O)[C@@H](O)[C@@H](O)[C@@H]1O"
obs_value = 2.7

[[record]]
compound = "O=C(NC1CC1)[C@H]1O[C@@H](CO)[C@@H](O)[C@H](O)[C@@H]1O"
obs_value = 2.89

[[record]]
compound = "[N-]=[N+]=NC[C@@]1(O)O[C@@H](CO)[C@@H](O)[C@H](O)[C@@H]1O"
obs_value = 2.13


----------
target: Glycogen phosphorylase, muscle form (Oryctolagus cuniculus); details: Muscle tissue
Property Label: pKi

[[record]]
test_smiles = "O=C(N[C@H]1O[C@H](CO)[C@@H](O)[C@H](O)[C@H]1O)c1ccccc1"
property_label = "pKi"
obs_value = 4.09

[[record]]
test_smiles = "CC(=O)NN1C(=O)N[C@@]2(O[C@@H](CO)[C@@H](O)[C@H](O)[C@@H]2O)C1=O"
property_label = "pKi"
obs_value = 3.26

[[record]]
test_smiles = "O=C(CBr)N[C@H]1O[C@@H](CO)[C@@H](O)[C@H](O)[C@@H]1O"
property_label = "pKi"
obs_value = 4.36

[[record]]
test_smiles = "NCC(=O)N[C@H]1O[C@@H](CO)[C@@H](O)[C@H](O)[C@@H]1O"
property_label = "pKi"
obs_value = 3.43

[[record]]
test_smiles = "O=C1CNC(=O)[C@@]2(N1)O[C@@H](CO)[C@@H](O)[C@H](O)[C@@H]2O"
property_label = "pKi"
obs_value = 4.22

